# SYSTEM: mSSTR3 (Mus musculus)
# Construct: expressed in transfected cells; host or cells: COS and CHO cells
# Sequence (P30935 whole entry): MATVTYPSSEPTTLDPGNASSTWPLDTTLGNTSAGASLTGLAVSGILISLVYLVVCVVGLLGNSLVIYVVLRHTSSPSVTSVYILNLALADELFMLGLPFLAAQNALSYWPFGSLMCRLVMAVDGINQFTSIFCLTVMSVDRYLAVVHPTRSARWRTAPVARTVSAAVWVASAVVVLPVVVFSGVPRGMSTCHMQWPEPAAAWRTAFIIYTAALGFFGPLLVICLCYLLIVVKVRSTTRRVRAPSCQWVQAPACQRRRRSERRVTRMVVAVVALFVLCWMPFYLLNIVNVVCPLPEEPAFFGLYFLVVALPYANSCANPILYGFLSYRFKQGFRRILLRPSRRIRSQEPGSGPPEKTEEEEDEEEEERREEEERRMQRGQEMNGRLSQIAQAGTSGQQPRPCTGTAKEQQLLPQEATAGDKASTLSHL
# PROTOCOL_NOTES: Inhibition of [125I-Tyr11]SRIF binding to cloned mSSTR3 (Table)
Where a SMILES comes first, the peptide text is derived from it. Bridges are numbered along the chain shown (N, C = ends). [ ]: non-standard residue; d: D form. Phe(4-CH2NHiPr) = CC(C)NCc1ccc(C[C@H](N)C(=O)O)cc1
TEST_READOUT: IC50 (nM)
Numbers only; they are read as nM.

### Prompt Returns the measured IC50 for the input molecule. Input: CC(C)NCc1ccc(C[C@@H]2NC(=O)[C@@H](Cc3c[nH]c4ccccc34)NC(=O)[C@H](Cc3ccccc3)NC(=O)[C@H](Cc3ccccc3)NC(=O)[C@@H](N)CSSC[C@@H](C(=O)O)NC(=O)[C@H](Cc3ccccc3)NC(=O)[C@H]([C@@H](C)O)NC2=O)cc1 [[IAmp^9]ODT8, [IAmp^5]-ODT8] (H-CFF[dW][Phe(4-CH2NHiPr)]TFC-OH; disulfide 1-8)
### Response 500

### Prompt Given CC(C)NCc1ccc(C[C@@H]2NC(=O)[C@@H](Cc3c[nH]c4ccccc34)NC(=O)[C@H](Cc3ccccc3)NC(=O)[C@H](Cc3ccccc3)NC(=O)[C@H](CCCCN)NC(=O)[C@@H](N)CSSC[C@@H](C(=O)O)NC(=O)[C@H](CO)NC(=O)[C@H]([C@@H](C)O)NC(=O)[C@H](Cc3ccccc3)NC(=O)[C@H]([C@@H](C)O)NC2=O)cc1 [Peptide No. 2, des-AA^1,2,5 [D-Trp^8, IAmp^9]-SRIF] (H-CKFF[dW][Phe(4-CH2NHiPr)]TFTSC-OH; disulfide 1-11) , state its recorded IC50.
### Response 1000

### Prompt Returns the measured IC50 for the input molecule. Input: CC(C)NCc1ccc(C[C@@H]2NC(=O)[C@@H](Cc3c[nH]c4ccccc34)NC(=O)[C@H](Cc3ccccc3)NC(=O)[C@H](Cc3ccccc3)NC(=O)[C@H](CCCCN)NC(=O)[C@@H](N)CSSC[C@@H](C(=O)O)NC(=O)[C@@H](CO)NC(=O)[C@H]([C@@H](C)O)NC(=O)[C@H](Cc3ccccc3)NC(=O)[C@H]([C@@H](C)O)NC2=O)cc1 [Peptide No. 4] (H-CKFF[dW][Phe(4-CH2NHiPr)]TFT[dS]C-OH; disulfide 1-11)
### Response 178

---

# SYSTEM: mSSTR1 (Mus musculus, UniProt P30873)
# Construct: expressed in transfected cells; host or cells: COS and CHO cells
# Sequence (P30873 whole entry): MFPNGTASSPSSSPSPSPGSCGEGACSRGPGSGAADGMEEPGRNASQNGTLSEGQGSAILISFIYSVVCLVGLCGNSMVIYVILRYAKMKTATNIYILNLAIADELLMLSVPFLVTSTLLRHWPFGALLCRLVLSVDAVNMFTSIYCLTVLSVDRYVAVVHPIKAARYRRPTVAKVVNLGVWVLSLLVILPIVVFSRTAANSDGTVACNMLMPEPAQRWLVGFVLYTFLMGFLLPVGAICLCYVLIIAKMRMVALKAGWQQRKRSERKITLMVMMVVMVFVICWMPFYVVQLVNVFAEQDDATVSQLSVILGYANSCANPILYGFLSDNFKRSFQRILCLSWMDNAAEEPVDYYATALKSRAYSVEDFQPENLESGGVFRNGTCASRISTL
# PROTOCOL_NOTES: Inhibition of [125I-Tyr11]SRIF binding to cloned mSSTR1 (Table)
Where a SMILES comes first, the peptide text is derived from it. Bridges are numbered along the chain shown (N, C = ends). [ ]: non-standard residue; d: D form. Phe(4-CH2NHiPr) = CC(C)NCc1ccc(C[C@H](N)C(=O)O)cc1
TEST_READOUT: log10(IC50) (log10 of the value in nM)
Scale: log10; quantity: IC50; unit before log: nM

### Prompt Fill in: log10(IC50) of CC(C)NCc1ccc(C[C@@H]2NC(=O)[C@@H](Cc3c[nH]c4ccccc34)NC(=O)[C@H](Cc3ccccc3)NC(=O)[C@H](Cc3ccccc3)NC(=O)[C@H](CCCCN)NC(=O)[C@@H](N)CSSC[C@@H](C(=O)O)NC(=O)[C@H](CO)NC(=O)[C@H]([C@@H](C)O)NC(=O)[C@H](Cc3ccccc3)NC(=O)[C@H]([C@@H](C)O)NC2=O)cc1 [Peptide No. 2, des-AA^1,2,5 [D-Trp^8, IAmp^9]-SRIF] (H-CKFF[dW][Phe(4-CH2NHiPr)]TFTSC-OH; disulfide 1-11) is ___
### Response 0.00

### Prompt Any idea what log10(IC50) was measured for CC(C)NCc1ccc(C[C@@H]2NC(=O)[C@@H](Cc3c[nH]c4ccccc34)NC(=O)[C@H](Cc3ccccc3)NC(=O)[C@H](Cc3ccccc3)NC(=O)[C@H](CC(N)=O)NC(=O)[C@H](CCCCN)NC(=O)[C@@H](N)CSSC[C@@H](C(=O)O)NC(=O)[C@H](CO)NC(=O)[C@H]([C@@H](C)O)NC(=O)[C@H](Cc3ccccc3)NC(=O)[C@H]([C@@H](C)O)NC2=O)cc1 [Peptide No. 9] (H-CKNFF[dW][Phe(4-CH2NHiPr)]TFTSC-OH; disulfide 1-12) ?
### Response 1.73

### Prompt Requested field: log10(IC50). Item: CC(C)NCc1ccc(C[C@@H]2NC(=O)[C@@H](Cc3c[nH]c4ccccc34)NC(=O)[C@H](Cc3ccccc3)NC(=O)[C@H](Cc3ccccc3)NC(=O)[C@@H](N)CSSC[C@@H](C(=O)O)NC(=O)[C@H](Cc3ccccc3)NC(=O)[C@H]([C@@H](C)O)NC2=O)cc1 [[IAmp^9]ODT8, [IAmp^5]-ODT8] (H-CFF[dW][Phe(4-CH2NHiPr)]TFC-OH; disulfide 1-8)
### Response 2.20

### Prompt Any idea what log10(IC50) was measured for CC(C)NCc1ccc(C[C@@H]2NC(=O)[C@@H](Cc3c[nH]c4ccccc34)NC(=O)[C@H](Cc3ccccc3)NC(=O)[C@H](Cc3ccccc3)NC(=O)[C@H](CCCCN)NC(=O)[C@@H](N)CSSC[C@@H](C(=O)O)NC(=O)[C@@H](CO)NC(=O)[C@H]([C@@H](C)O)NC(=O)[C@H](Cc3ccccc3)NC(=O)[C@H]([C@@H](C)O)NC2=O)cc1 [Peptide No. 4] (H-CKFF[dW][Phe(4-CH2NHiPr)]TFT[dS]C-OH; disulfide 1-11) ?
### Response 0.10

### Prompt Find the recorded log10(IC50) belonging to CC(C)NCc1ccc(C[C@@H]2NC(=O)[C@@H](Cc3c[nH]c4ccccc34)NC(=O)[C@H](Cc3ccccc3)NC(=O)[C@H](Cc3ccccc3)NC(=O)[C@H](CCCCN)NC(=O)[C@@H](NC(=O)[C@@H](N)Cc3ccc(O)cc3)CSSC[C@@H](C(=O)O)NC(=O)[C@H](CO)NC(=O)[C@H]([C@@H](C)O)NC(=O)[C@H](Cc3ccccc3)NC(=O)[C@H]([C@@H](C)O)NC2=O)cc1 [Peptide No. 5] (H-YCKFF[dW][Phe(4-CH2NHiPr)]TFTSC-OH; disulfide 2-12) and report it.
### Response -0.10

Provenance of the data: patent US5750499A
